- tested_on: T1, Ala mutant SEQ ID NO: 28 (human)
- T1 sequence (peptide): EANMDDQWMQDEMEIGY
- assay_remarks: ELISA, peptide on plate (10 ug/mL)
Quick reference: absorbance 490 nm/630 nm of the listed items.
Hi! Could you send only the number? It should be in OD, unit omitted.

IN: Consider the binder G6 (antibody, IgG1, V domains shown) VH: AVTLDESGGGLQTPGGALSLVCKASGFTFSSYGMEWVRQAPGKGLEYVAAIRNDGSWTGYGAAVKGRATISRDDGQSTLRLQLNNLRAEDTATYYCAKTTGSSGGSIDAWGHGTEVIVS VL: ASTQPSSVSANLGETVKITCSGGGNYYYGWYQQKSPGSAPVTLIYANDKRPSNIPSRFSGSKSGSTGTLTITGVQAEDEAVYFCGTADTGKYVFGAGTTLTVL and give its measured absorbance 490 nm/630 nm.
OUT: 1.99

Then there is this binder:
IN: Consider the binder G8 (antibody, IgG1, V domains shown) VH: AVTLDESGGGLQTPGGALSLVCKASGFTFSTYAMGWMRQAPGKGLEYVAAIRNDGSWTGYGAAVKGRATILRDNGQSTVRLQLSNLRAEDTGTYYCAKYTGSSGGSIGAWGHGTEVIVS VL: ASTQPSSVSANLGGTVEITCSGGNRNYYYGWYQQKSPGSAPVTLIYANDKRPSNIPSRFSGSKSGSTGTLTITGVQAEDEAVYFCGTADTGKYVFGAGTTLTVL and give its measured absorbance 490 nm/630 nm.
OUT: 1.94
